Study system: T1, 4H3855-bN
T1 chain: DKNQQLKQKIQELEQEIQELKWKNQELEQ
Experimental protocol: two-hybrid library CCNG1;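 note: natural log of median RNA to DNA barcode read ratio; higher means stronger binding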
I'd be grateful if you could share measured interaction score for these entries.

// below: answered binders
binder="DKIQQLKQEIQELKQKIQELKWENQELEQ [4H2667-bN]" reported_metric="interaction score" observed_result=-0.551
binder="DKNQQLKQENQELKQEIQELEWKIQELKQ [4H3782-bN]" reported_metric="interaction score" observed_result=-1.08
binder="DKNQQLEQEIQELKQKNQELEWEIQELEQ [4H3185-bN]" reported_metric="interaction score" observed_result=-1.23
binder="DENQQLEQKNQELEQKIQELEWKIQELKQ [4H1446-bN]" reported_metric="interaction score" observed_result=0.333
binder="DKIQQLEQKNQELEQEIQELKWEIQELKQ [4H2442-bN]" reported_metric="interaction score" observed_result=-0.731

Take each entry in turn and give its interaction score.
1. DEIQQLEQKIQELKQENQELEWEIQELKQ [4H338-bN]
2. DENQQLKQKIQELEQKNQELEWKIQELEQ [4H1845-bN]
3. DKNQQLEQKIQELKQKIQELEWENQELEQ [4H3427-bN]
4. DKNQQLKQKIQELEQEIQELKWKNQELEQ [4H3855-bN]
5. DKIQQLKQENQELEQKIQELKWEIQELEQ [4H2729-bN]

Result:
1. -0.12
2. -0.717
3. -0.838
4. 0.124
5. -0.181
